# credit: patent US5668134A

- PROTOCOL_TEXT: Tissue or fluid to plasma ratios and blister fluid distribution after oral administration
- Assay type: in vivo, human
- STUDY_CONDITIONS: Sputum, oral; read-out: Mean Tissue or Fluid to Plasma Ratio
Where a name gives a salt, the structure may show the parent alone.
RECORDED_METRIC: Kp
Just the number.

Dear colleague, please send me the reported Kp for CCn1cc(C(=O)O)c(=O)c2cc(F)c(N3CCNC(C)C3)c(F)c21 (racemic) [lomefloxacin HCl] when you can.
1.3

---

- PROTOCOL_TEXT: Example 5: lomefloxacin plasma concentrations
- STUDY_CONDITIONS: human, plasma, plasma concentration, Hour 19, individual subjects, a.m. dosing; 5 hours following last active dose
Where a name gives a salt, the structure may show the parent alone.
RECORDED_METRIC: concentration at 5 h (µg/mL)
Hi! Could you send only the number? It should be in µg/mL, unit omitted.

Dear colleague, please send me the reported concentration at 5 h for CCn1cc(C(=O)O)c(=O)c2cc(F)c(N3CCNC(C)C3)c(F)c21 (racemic) [lomefloxacin HCl] when you can.
1.85

---

- PROTOCOL_TEXT: Pharmacokinetics of lomefloxacin in humans (general description)
- Format: in vivo, human
- STUDY_CONDITIONS: human, feces; oral dose; read-out: unchanged drug recovered in the feces
Counter-ions that a name gives are not always drawn.
RECORDED_METRIC: dose excreted

Dear colleague, please send me the reported dose excreted for CCn1cc(C(=O)O)c(=O)c2cc(F)c(N3CCNC(C)C3)c(F)c21 (racemic) [lomefloxacin HCl] when you can.
~10%

---

- PROTOCOL_TEXT: Pharmacokinetics in the geriatric population
- Format: in vivo, human
- STUDY_CONDITIONS: human, plasma; 16 elderly volunteers, single 400 mg dose; read-out: peak plasma concentration, mean
Where a name gives a salt, the structure may show the parent alone.
RECORDED_METRIC: Cmax (ng/mL)
Hi! Could you send only the number? It should be in ng/mL, unit omitted.

Dear colleague, please send me the reported Cmax for CCn1cc(C(=O)O)c(=O)c2cc(F)c(N3CCNC(C)C3)c(F)c21 (racemic) [lomefloxacin HCl] when you can.
4200

---

- PROTOCOL_TEXT: Tissue or fluid to plasma ratios and blister fluid distribution after oral administration
- Format: in vivo, human
- STUDY_CONDITIONS: Blister Fluid, oral; read-out: Mean Tissue or Fluid to Plasma Ratio
Structures can show the parent of a compound that is named as a salt.
RECORDED_METRIC: Kp
Just the number.

Dear colleague, please send me the reported Kp for CCn1cc(C(=O)O)c(=O)c2cc(F)c(N3CCNC(C)C3)c(F)c21 (racemic) [lomefloxacin HCl] when you can.
1

---

- PROTOCOL_TEXT: Example 5: lomefloxacin plasma concentrations
- STUDY_CONDITIONS: human, plasma, Cmax, mean, p.m. dosing
Counter-ions that a name gives are not always drawn.
RECORDED_METRIC: Cmax (ng/mL)
Hi! Could you send only the number? It should be in ng/mL, unit omitted.

Dear colleague, please send me the reported Cmax for CCn1cc(C(=O)O)c(=O)c2cc(F)c(N3CCNC(C)C3)c(F)c21 (racemic) [lomefloxacin HCl] when you can.
2900

---

- PROTOCOL_TEXT: Example 5: lomefloxacin plasma concentrations
- STUDY_CONDITIONS: human, plasma, plasma concentration, Hour 38, mean, mean, a.m. dosing; 24 hours following last active dose
Where a name gives a salt, the structure may show the parent alone.
RECORDED_METRIC: concentration at 24 h
Don't forget the unit after the value.

Dear colleague, please send me the reported concentration at 24 h for CCn1cc(C(=O)O)c(=O)c2cc(F)c(N3CCNC(C)C3)c(F)c21 (racemic) [lomefloxacin HCl] when you can.
300 ng/mL
